molecular target: Platelet-activating factor receptor (Oryctolagus cuniculus); test: Inhibition of PAF-induced platelet aggregation in rabbit platelet rich plasma
measured_endpoint: IC50 (µM)
Give just the numeric value; µM need not be written.

Ask: Reported IC50 for Platelet-activating factor receptor (Oryctolagus cuniculus), given CCCCCCCCCCCCCCOc1ccc(C(=O)N(Cc2cccc[n+]2C)C(C)=O)cc1C(C)(C)C ?
Reply: 0.022

Ask: Reported IC50 for Platelet-activating factor receptor (Oryctolagus cuniculus), given CCCCCCCCCCCCCCOc1ccccc1CN(Cc1cccc[n+]1C)C(C)=O ?
Reply: 43

Ask: Reported IC50 for Platelet-activating factor receptor (Oryctolagus cuniculus), given CCCCCCCOc1ccc(C(=O)N(Cc2cccc[n+]2C)C(C)=O)cc1OCCCCCCC ?
Reply: 3.7

---

biological target: Platelet-activating factor receptor (Oryctolagus cuniculus); assay: Inhibition of PAF-induced platelet aggregation in rabbit platelet rich plasma
t if IC50 is below 1 µM. f if not; exact matches included in f.

Ask: Is the reported IC50 for CCCCCCCCCCCCCCOc1ccc(CC(=O)NCc2cccc[n+]2C)cc1 strictly below 1 µM?
Reply: f

Ask: Is the reported IC50 for CCCCCCCCCCCCCCOc1ccc(CC(=O)NCCc2cccc[n+]2C)cc1 strictly below 1 µM?
Reply: f

Ask: Is the reported IC50 for CCCCCCCCCCOc1ccc(C(=O)N(Cc2cccc[n+]2C)C(C)=O)cc1C(C)(C)C strictly below 1 µM?
Reply: f

Ask: Is the reported IC50 for CCCCCCCCCCCCCCOc1ccc(C(=O)N(Cc2ccc[n+](C)c2)C(C)=O)cc1C(C)(C)C strictly below 1 µM?
Reply: f

Ask: Is the reported IC50 for CCCCCCCCCCCCCCOc1ccc(C(=O)NCCc2cccc[n+]2C)cc1 strictly below 1 µM?
Reply: f

Ask: Is the reported IC50 for CCCCCCCCCCCCCCOc1ccc(C(=O)N(Cc2cccc[n+]2CCC)C(C)=O)cc1OC strictly below 1 µM?
Reply: t

Ask: Is the reported IC50 for CCCCCCCCCCCCCCOc1ccc(C(=O)N(Cc2cccc[n+]2CC)C(C)=O)cc1OC strictly below 1 µM?
Reply: t

Ask: Is the reported IC50 for CCCCCCCCCCCCCCOc1ccc(CNC(=O)c2cccc[n+]2CC)cc1 strictly below 1 µM?
Reply: f

Ask: Is the reported IC50 for CCCCCCCCCCCCCCOc1ccc(CNC(=O)c2cc[n+](C)cc2)cc1 strictly below 1 µM?
Reply: f

Ask: Is the reported IC50 for CCCCCCCCCCCCCCOc1ccc(C(=O)N(Cc2ccc[n+](C)c2)C(C)=O)cc1 strictly below 1 µM?
Reply: f

Ask: Is the reported IC50 for CCCCCCCCCCCCCCOc1ccc(C(=O)NC(=O)c2ccc[n+](CCC)c2)cc1OC strictly below 1 µM?
Reply: f

Ask: Is the reported IC50 for CCCCCCCCCCCCCCOc1ccc(COC(=O)N(Cc2cccc[n+]2C)C(C)=O)cc1 strictly below 1 µM?
Reply: f

Ask: Is the reported IC50 for CCCCCCCCCCCCCCOc1ccc(CN(Cc2cccc[n+]2CC)C(C)=O)cc1 strictly below 1 µM?
Reply: f

Ask: Is the reported IC50 for CCCCCCCCCCCCCCOc1ccc(C(=O)N(Cc2cccc[n+]2C)C(C)=O)cc1 strictly below 1 µM?
Reply: t

Ask: Is the reported IC50 for CCCCCCCCCCCCCCOc1ccc(C(=O)NCc2cccc[n+]2C)cc1 strictly below 1 µM?
Reply: f

Ask: Is the reported IC50 for CCCCCCCCCCCCCCOc1cc(C(=O)N(Cc2cccc[n+]2C)C(C)=O)ccc1OC strictly below 1 µM?
Reply: f

Ask: Is the reported IC50 for CCCCCCCCCCCCCCOc1ccc(C(=O)N(Cc2cccc[n+]2C)C(C)=O)cc1OCCCCCCCCCCCCCC strictly below 1 µM?
Reply: f

Ask: Is the reported IC50 for CCCCCCCCCCCCCCOc1ccc(C(=O)N(Cc2cccc[n+]2C)C(C)=O)cc1OC strictly below 1 µM?
Reply: t

Ask: Is the reported IC50 for CCCCCCCCCCCCCCOc1ccc(C(=O)N(Cc2cccc[n+]2Cc2ccccc2)C(C)=O)cc1 strictly below 1 µM?
Reply: f
